# assay-system: RUNX1 (UniProt Q01196)
# Sequence (Q01196 whole entry): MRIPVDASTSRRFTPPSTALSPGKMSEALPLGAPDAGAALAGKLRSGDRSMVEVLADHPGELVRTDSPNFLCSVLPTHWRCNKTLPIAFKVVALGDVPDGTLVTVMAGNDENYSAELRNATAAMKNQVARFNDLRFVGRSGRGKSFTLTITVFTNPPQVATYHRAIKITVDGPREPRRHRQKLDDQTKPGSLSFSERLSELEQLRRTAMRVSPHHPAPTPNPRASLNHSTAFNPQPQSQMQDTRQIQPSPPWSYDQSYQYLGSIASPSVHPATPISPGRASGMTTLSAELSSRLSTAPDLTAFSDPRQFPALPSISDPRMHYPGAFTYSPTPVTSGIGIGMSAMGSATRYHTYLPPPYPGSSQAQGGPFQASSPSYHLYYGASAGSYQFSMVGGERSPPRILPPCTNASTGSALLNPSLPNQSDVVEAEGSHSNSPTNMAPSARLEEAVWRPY
# experiment-notes: RUNX1 binding intensity (PBM fluorescence) in presence of ETS1, normalised to RUNX1-only experiment (arbitrary fluorescence units); higher = stronger binding;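 note: Full-length recombinant human ETS1 or RUNX1 bound to double-stranded 36-bp genomic probes on microarrays, detected by protein-specific primary antibody and Alexa488 secondary, spot fluorescence as median of four replicate spots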
# assay-setup: RUNX1 concentration 2 nM; ETS1 concentration 25 nM
Note: every record was labeled by where its RUNX1 binding intensity sits among A = under 1000, B = from 1000 up to 2000, C = 2000 and over

GTGCCCCGGACCTACGGATACCACACACAGACAGGC : A
TGGCGGGAGAACTTCCCCCTGTGCGGTCGCGACGTG : A
ATTTCCATTTCCGGACTCTTCTCCTGCCCGCAGGGC : C
TCTAAATCACTTCCTGTTACAGAAACCACAGGCCTG : C
AAGGCGGTACTTCCTCCAGCATTTGCCGCAAGTTAT : B

Incoming: For this sequence, which bin applies? `GAGGGTTGCTGGGGGGAAGTGTGGTAAATCTTTTCC`
Outgoing: A

Incoming: Now consider `GCCACTATTTCCTGCCTTCTGCGGCTGAGAGTCCCA` .
Outgoing: C

Incoming: Now consider `AAAGCAAACAGGAAGTGCTGTGGTAACAAGGCCCCA` .
Outgoing: B

Incoming: Now consider `CAGACACCAACGCTCGGAAACCGCCAGACACCAAGG` .
Outgoing: A

Incoming: Now consider `AACCTAGAAAAGGAAGCTGCGGTTTTTCAGGGTATG` .
Outgoing: C

Incoming: Now consider `CCACCTCCTCCGGACGCCGCCCGCAACTGAGCATGC` .
Outgoing: B

Incoming: Now consider `ACGAGAGTCTAGAGGAAACCAACCCGCAACTCACTG` .
Outgoing: A

Incoming: Now consider `AATGATTACCTAACAGGAAAACCACATTGGTCATTT` .
Outgoing: B

Incoming: Now consider `CCGGGCTGCGGAAGGCGGGAACTCTGCGGTTCGCGG` .
Outgoing: B
